From: ChEMBL document CHEMBL1201862

- Test system: A498
- Protocol notes: NCI tumour cell line growth inhibition, 48 h
Calls of active or inactive are those of the source. Rule as the data show it: active = GI50 up to about 1.1 µM and inactive = higher.
Possible outcomes: T for active, F for inactive

> print(dat)
                                    molecule  system.name  classification
 1           CCN(CC)C(=S)N/N=C/c1cc(OC)ccc1O         A498               F
 2       O=c1ccc2[n+]([O-])c3ccc(O)cc3oc-2c1         A498               F
 3        Cn1c2ccccc2c2c(=O)[nH]c(=O)[nH]c21         A498               F
 4       CCCC(=O)N(C)/N=N/c1ccc(C(=O)OCC)cc1         A498               F
 5  COc1ccc(N2C(=O)C3CC(c4ccc(Br)cc4)c4c([nH]c5ccccc45)C3C2=O)cc1 (centres undefined)         A498               F
 6  COc1c(-c2ccc3c(c2)OCO3)oc2cc(O)cc(O)c2c1=O         A498               F
 7     O=C1CCCC1CN1CCCC1 (centres undefined)         A498               F
 8  CC(=O)OCC1OC(n2nc(Cc3ccccc3)c(=S)[nH]c2=S)C(OC(C)=O)C(OC(C)=O)C1OC(C)=O (centres undefined)         A498               F
 9       Cc1ccc2oc3c(c(Br)c(Br)n3C)c(=O)c2c1         A498               F
10              CCSC1=N/C(=C\c2ccco2)C(=O)N1         A498               F
11                 COc1nc(N)nc2c1n(C)c[n+]2C         A498               F
12  CC(=O)OC(/C=C1/C=CC(=O)O1)COC(=O)c1ccccc1 (centres undefined)         A498               F
13  CCCC(=O)OCC1OC(n2cc(F)c(=O)[nH]c2=O)CC1OC(=O)CCC (centres undefined)         A498               T
14        O=C(O)CCCCCOc1cccnc1/C=N/NC1=NCCN1         A498               F
15  C=C1C(=O)CC2C(=O)C(C)(O)CC/C=C(\C)C(=O)CC12 (centres undefined)         A498               F
16  CCO[C@@H]1C2C=CC(C2)[C@H]1[N+](=O)[O-] (some centres undefined)         A498               F
17                CN(C)c1n/c(=N/Cc2ccco2)ss1         A498               F
18  COc1cc(C(=O)NC(CCN)(c2ccccc2)c2ccccc2)cc(OC)c1OC         A498               F
19  N#CC12CC=C(c3ccccc3)N=C1NC(c1ccccc1)=CC2 (centres undefined)         A498               F
20              O=c1[nH]cc(COCCCO)c(=O)[nH]1         A498               F
21  COC(=O)C(C(=O)c1ccccc1)C(C(=O)C(=O)Nc1ccc(OC)cc1OC)C(=O)C(=O)c1ccc(C)cc1 (centres undefined)         A498               F
22          O=C(O)CSc1nnc(-c2ccc(O)cc2)[nH]1         A498               F
23  O=c1c2cc(Br)ccc2[nH]c(=S)n1-c1ccc(Br)cc1         A498               F
24       C=CCSC1=N/C(=C\c2ccccc2)C(=O)N1CC=C         A498               F
